Provenance of the data: ChEMBL document CHEMBL1201862

Measured EC50 of individual entries
experimental-system: Heat shock factor protein 1 (Mus musculus, UniProt P38532)
Sequence (P38532 whole entry): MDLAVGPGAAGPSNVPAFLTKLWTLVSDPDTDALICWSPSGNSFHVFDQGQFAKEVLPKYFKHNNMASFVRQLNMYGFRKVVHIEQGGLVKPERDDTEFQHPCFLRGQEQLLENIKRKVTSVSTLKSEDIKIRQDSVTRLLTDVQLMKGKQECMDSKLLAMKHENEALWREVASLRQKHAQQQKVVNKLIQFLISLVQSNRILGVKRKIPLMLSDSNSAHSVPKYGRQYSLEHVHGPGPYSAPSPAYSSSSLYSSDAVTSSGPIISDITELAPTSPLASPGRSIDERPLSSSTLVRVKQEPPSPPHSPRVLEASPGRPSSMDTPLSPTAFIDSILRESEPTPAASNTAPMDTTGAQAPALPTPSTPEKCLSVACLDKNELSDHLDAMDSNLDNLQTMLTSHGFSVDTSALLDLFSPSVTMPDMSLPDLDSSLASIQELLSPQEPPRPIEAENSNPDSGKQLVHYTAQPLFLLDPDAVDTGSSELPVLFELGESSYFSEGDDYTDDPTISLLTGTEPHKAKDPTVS
method-summary: decrease of HSF1-responsive luciferase luminescence – cell-based, NIH3T3, dose retest, confirmation (AID 2382);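 also: NIH3T3 fibroblasts with HSF1-driven luciferase reporter stressed by proteasome inhibitor MG132; luminescence from HSF1-driven luciferase expression after 8 hours of MG132 stress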
Assay type: functional
Active and inactive are the calls of the source. Rule as the data show it: actives have a measured EC50 and inactives only a lower limit.

Solved cases below.
- chemical-string: "O=C(NC(=S)N1CCN(c2c(Cl)cccc2[N+](=O)[O-])CC1)c1cccs1"
  measured-parameter: "EC50"
  reported-value: "> 195 µM (not active)"
- chemical-string: "Cc1ccc(S(=O)(=O)N(CC(=O)N2CCc3ccccc3C2)c2ccc(Cl)c(Cl)c2)cc1"
  measured-parameter: "EC50"
  reported-value: "> 195 µM (not active)"
- chemical-string: "CC(C)Oc1ccc(C(=O)O)cc1"
  measured-parameter: "EC50"
  reported-value: "69.4 µM (active)"
- chemical-string: "O=C(c1cc(Cl)ccc1Cl)N1CCOCC1"
  measured-parameter: "EC50"
  reported-value: "> 195 µM (not active)"
- chemical-string: "CSc1nc2ccc(NS(=O)(=O)c3ccc([N+](=O)[O-])cc3)cc2s1"
  measured-parameter: "EC50"
  reported-value: "> 195 µM (not active)"

Shift focus to the following entry.
Bench note, Heat shock factor protein 1 (Mus musculus, UniProt P38532): entry CCOC(=O)c1cnc2ccccc2c1Nc1ccc2c(c1)OCCO2 , its EC50 = 6 µM (active)
